Origin of values: patent US6706664B1

system: solgum; assay: Soil treatment test for upland field; assay type: in vivo; parameters: key: 0: normal development; 1: Less damaged; 2: Slightly damaged; 3: Moderately damaged; 4: Severely damaged; 5: All killed; settings: 500 g/ha, glass house 25° C., 3 weeks
propertyLabel: Effects Solgum
Give bare numbers.

Consider the reported Effects Solgum for these molecules:
INSERT INTO measurements (molecule, experimentalvalue) VALUES
  ('CCC(Oc1ccc(F)c(C(F)(F)F)c1)c1nc2cc(F)c(Cl)cc2o1 (stereo not drawn)', 2),
  ('CC(Oc1cccc(C(F)(F)F)c1)c1nc2ccc(C(F)(F)F)cc2o1 (stereo not drawn)', 0),
  ('CCC(Oc1ccc(F)c(C(F)(F)F)c1)c1nc2cc(OC)ccc2o1 (stereo not drawn)', 2),
  ('CCC(Oc1cccc(C(F)(F)F)c1)c1nc2ccc(Cl)cc2o1 (stereo not drawn)', 0),
  ('CCC(Oc1ccc(F)c(C(F)(F)F)c1)c1nc2ccc(Cl)cc2o1 (stereo not drawn)', 0),
  ('CCCC(Oc1ccc(F)c(C(F)(F)F)c1)c1nc2cc(F)c(Cl)cc2o1 (stereo not drawn)', 1);

For each of the molecules below, state Effects Solgum.
1. CCC(Oc1cccc(C(F)(F)F)c1)c1nc2cc(F)c(Cl)cc2o1 (stereo not drawn)
2. CCC(Oc1ccc(F)c(C(F)(F)F)c1)c1nc2cc(F)ccc2o1 (stereo not drawn)

Marked response:
1: 1; 2: 0

// CCCC(Oc1cccc(C#N)c1)c1nc2cc(S(C)(=O)=O)ccc2o1 (stereo not drawn) : Effects Solgum value = 0
